// reported self-cleavage per item
B1: HDV Ribozyme (parent)
chain: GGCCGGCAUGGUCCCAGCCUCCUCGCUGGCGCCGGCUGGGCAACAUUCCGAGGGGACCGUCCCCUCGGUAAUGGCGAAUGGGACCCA

variants of: B1; assay: self-cleavage, relative activity (ratio to wild type); higher = more cleavage; co-transcriptional
Write the value as a bare number.

Some solved cases for reference:
mutation-name: C32G G53U
self-cleavage: 0.196
//
mutation-name: G39A C48A
self-cleavage: 0.609

Then this variant:
Q. Give a short answer stating reported self-cleavage for G11U A45G .
A. 0.587
